# TARGET: human 11βHSD1 enzyme (Homo sapiens, UniProt P28845)
# Construct: baculovirus expressed N terminal 6-His tagged full length human 11βHSD1 enzyme; 6-His (N); made in house
# Sequence (P28845 whole entry): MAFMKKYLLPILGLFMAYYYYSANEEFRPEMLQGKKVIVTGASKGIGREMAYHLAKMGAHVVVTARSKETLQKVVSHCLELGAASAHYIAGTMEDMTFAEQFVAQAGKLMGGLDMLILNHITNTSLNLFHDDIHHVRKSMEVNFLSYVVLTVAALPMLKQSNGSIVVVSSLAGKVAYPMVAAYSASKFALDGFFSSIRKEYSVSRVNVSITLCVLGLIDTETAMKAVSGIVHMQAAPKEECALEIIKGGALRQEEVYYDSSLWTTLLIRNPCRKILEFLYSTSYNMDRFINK
# PROTOCOL SUMMARY: 11βHSD1 cortisone to cortisol conversion, competitive HTRF assay
# Format: biochemical
# PROTOCOL CONDITIONS: human 11-βHSD; test concentration of 30 μM of compound
REPORTED METRIC: inhibition at 30 µM (%)

1. O=C(N[C@H]1C2CC3CC1C[C@@](O)(C3)C2)c1cnc(NC2CC2)nc1[C@H]1CCCO1 ... 94.4
2. Cc1ncc(C(=O)N[C@H]2C3CC4CC2C[C@@](O)(C4)C3)c(OC2CCCC2)n1 ... 106
3. O=C(N[C@H]1C2CC3CC1C[C@@](O)(C3)C2)c1cnc(OC2CCC2)nc1C1CC1 ... 98.6
4. O=C(N[C@H]1C2CC3CC1C[C@@](O)(C3)C2)c1cnc(OC2COC2)nc1C1CC1 ... 93.1
5. CCOc1nc(N2C[C@@H](C)O[C@@H](C)C2)ncc1C(=O)N[C@H]1C2CC3CC1C[C@@](O)(C3)C2 ... 99.4
6. CC(C)Oc1nc(NC2CCC2)ncc1C(=O)N[C@H]1C2CC3CC1C[C@@](O)(C3)C2 ... 94.2
7. O=C(N[C@H]1C2CC3CC1C[C@@](O)(C3)C2)c1cnc(N2CCOC(CO)C2)nc1C1CC1 (stereo partly shown) ... 95.6
8. CC(C)(CO)Nc1ncc(C(=O)N[C@H]2C3CC4CC2C[C@@](O)(C4)C3)c(C2CCC2)n1 ... 97.3
9. CC(C)Nc1ncc(C(=O)N[C@H]2C3CC4CC2C[C@@](O)(C4)C3)c(C2CCCC2)n1 ... 104
10. CNc1ncc(C(=O)N[C@H]2C3CC4CC2C[C@@](O)(C4)C3)c(C2CCC2)n1 ... 95.7
11. O=C(N[C@H]1C2CC3CC1C[C@@](O)(C3)C2)c1cnc(NC2CCC2)nc1C1CC1 ... 102
12. O=C(N[C@H]1C2CC3CC1C[C@](O)(C3)C2)c1cnc(NC2CCC2)nc1C1CCCC1 ... 95.5
13. C[C@@H]1CN(c2ncc(C(=O)N3CCC(c4cccnc4)C3)c(C3CC3)n2)C[C@H](C)O1 (stereo partly shown) ... 100
14. Cc1nc(N2CCOCC2)ncc1C(=O)NC1C2CC3CC(C2)CC1C3 (stereo not shown) ... 95.4
15. O=C(N[C@H]1C2CC3CC1C[C@@](O)(C3)C2)c1cncnc1C1CC1 ... 106
16. CCCSc1nc(N2CCC[C@@H](CC(=O)OC)C2)ncc1C(=O)NC1CCCCC1 ... 100

====

# TARGET: human 11βHSD1 enzyme (Homo sapiens, UniProt P28845)
# Construct: baculovirus expressed N terminal 6-His tagged full length human 11βHSD1 enzyme; 6-His (N); made in house
# PROTOCOL SUMMARY: 11βHSD1 cortisone to cortisol conversion, competitive HTRF assay
# Assay type: biochemical
# PROTOCOL CONDITIONS: human 11-βHSD; test concentration of 30 μM of compound
REPORTED METRIC: inhibition at 30 µM

1. O=C(N[C@H]1C2CC3CC1C[C@@](O)(C3)C2)c1cnc(OC2CCC2)nc1C1CC(F)(F)C1 ... 87.1%
2. COc1nc(NC2CC2)ncc1C(=O)N[C@H]1C2CC3CC1C[C@@](O)(C3)C2 ... 105%
3. Cc1ncc(C(=O)N[C@H]2C3CC4CC2C[C@@](O)(C4)C3)c(CC(C)(C)C)n1 ... 102%
4. COc1ncc(C(=O)NC2C3CC4CC2CC(O)(C4)C3)c(C2(C)CC2)n1 (stereo not drawn) ... 99%
5. COc1nc(N2C[C@@H](C)O[C@@H](C)C2)ncc1C(=O)N[C@H]1C2CC3CC1C[C@@](O)(C3)C2 ... 102%
6. CN1CCN(c2ncc(C(=O)N[C@H]3C4CC5CC3C[C@@](O)(C5)C4)c(C3CCCC3)n2)CC1=O ... 99.1%

====

# maps each entry to its inhibition at 30 µM
# TARGET: human 11βHSD1 enzyme (Homo sapiens, UniProt P28845)
# Construct: baculovirus expressed N terminal 6-His tagged full length human 11βHSD1 enzyme; 6-His (N); made in house
# PROTOCOL SUMMARY: 11βHSD1 cortisone to cortisol conversion, competitive HTRF assay
# Format: biochemical
# PROTOCOL CONDITIONS: human 11-βHSD; test concentration of 30 μM of compound
# Description: The evaluation of compounds described herein was carried out using a baculovirus expressed N terminal 6-His tagged full length human 11βHSD1 enzyme(*1). The enzyme was purified from a detergent solubilised cell lysate, using a copper chelate column. Inhibitors of 11βHSD1 reduce the conversion of cortisone to cortisol, which is identified by an increase in signal, in the above assay. […] Fluorescence at 665 nm and 620 nm was measured and the 665 nm:620 nm ratio calculated using an Envision plate reader.
REPORTED METRIC: inhibition at 30 µM (%)

1. COc1nc(NC2CCC2)ncc1C(=O)N[C@H]1C2CC3CC1C[C@@](O)(C3)C2 ... 93
2. CC(C)(C)c1nc(N2CCOCC2)ncc1C(=O)NC1C2CC3CC(C2)CC1C3 (stereo not shown) ... 108
3. C[C@@H]1CN(c2ncc(C(=O)N[C@H]3C4CC5CC3C[C@@](O)(C5)C4)c([C@H]3CCCO3)n2)C[C@H](C)N1 ... 97.2
4. CN1CCN(CCNc2ncc(C(=O)N[C@H]3C4CC5CC3C[C@@](O)(C5)C4)c(C3CC3)n2)CC1 ... 88.5

====

inhibition at 30 µM by entry:
# TARGET: human 11βHSD1 enzyme (Homo sapiens, UniProt P28845)
# Construct: baculovirus expressed N terminal 6-His tagged full length human 11βHSD1 enzyme; 6-His (N); made in house
# PROTOCOL SUMMARY: 11βHSD1 cortisone to cortisol conversion, competitive HTRF assay
# Assay type: biochemical
# PROTOCOL CONDITIONS: human 11-βHSD; test concentration of 30 μM of compound
REPORTED METRIC: inhibition at 30 µM

1. Cc1ncc(C(=O)N[C@H]2C3CC4CC2C[C@@](O)(C4)C3)c(OC2CCC2)n1 [Example 203] ... 98.6%
2. NCc1ncc(C(=O)N[C@H]2C3CC4CC2C[C@@](O)(C4)C3)c(C2CCCC2)n1 [Example 152] ... 97.8%
3. Cc1ncc(C(=O)N[C@H]2C3CC4CC2C[C@@](O)(C4)C3)c(C2CCC(F)(F)C2)n1 (stereo partly shown) [Example 184] ... 108%
4. CCCSc1ncc(C(=O)N[C@H]2C3CC4CC2C[C@@](O)(C4)C3)c(N2C[C@@H](C)O[C@@H](C)C2)n1 [Example 24] ... 68%

====

# TARGET: human 11βHSD1 enzyme (Homo sapiens)
# Construct: baculovirus expressed N terminal 6-His tagged full length human 11βHSD1 enzyme; 6-His (N); made in house
# PROTOCOL SUMMARY: 11βHSD1 cortisone to cortisol conversion, competitive HTRF assay
# Assay type: biochemical
# PROTOCOL CONDITIONS: human 11-βHSD; test concentration of 30 μM of compound
# inhibition at 30 µM values compiled below
REPORTED METRIC: inhibition at 30 µM (%)

1) CC(C)Oc1ncc(C(=O)N[C@H]2C3CC4CC2C[C@@](O)(C4)C3)c(C2CCCC2)n1 ... 100
2) O=C(N[C@H]1C2CC3CC1C[C@@](O)(C3)C2)c1cnc(N2CC(F)(F)C2)nc1N1CC(F)(F)C1 ... 52.8
3) O=C(N[C@H]1C2CC3CC1C[C@@](O)(C3)C2)c1cnc(OC2COC2)nc1C1CCCC1 ... 98.4
4) COCCN1CCN(c2ncc(C(=O)N[C@H]3C4CC5CC3C[C@@](O)(C5)C4)c(C3CC3)n2)CC1 ... 96.9
5) CSc1ncc(C(=O)N[C@H]2C3CC4CC2C[C@@](O)(C4)C3)c(C2CCCCC2)n1 ... 103
6) O=C(N[C@H]1C2CC3CC1C[C@@](O)(C3)C2)c1cnc(NCCN2CCOCC2)nc1C1CC1 ... 91.6
7) CSc1ncc(C(=O)N[C@H]2C3CC4CC2C[C@@](O)(C4)C3)c([C@@H]2CCCO2)n1 ... 95.8
8) C[C@@H]1CN(c2ncc(C(=O)N[C@H]3C4CC5CC3C[C@](O)(C5)C4)c(C3CCCC3)n2)C[C@H](C)N1 ... 94.1
9) CC(C)Oc1ncc(C(=O)N[C@H]2C3CC4CC2C[C@@](O)(C4)C3)c(C2CCC2)n1 ... 97.3
10) CN(C)c1ncc(C(=O)N[C@H]2C3CC4CC2C[C@@](O)(C4)C3)c(C2CCC2)n1 ... 97
11) O=C(N[C@H]1C2CC3CC1C[C@@](O)(C3)C2)c1cnc(N2CCC2)nc1C1CCC1 ... 88.8
12) CC(C)Oc1nc(OC2CCC2)ncc1C(=O)N[C@H]1C2CC3CC1C[C@@](O)(C3)C2 ... 96
13) O=C(N[C@H]1C2CC3CC1C[C@@](O)(C3)C2)c1cnc(OC2CCCC2)nc1C1CCCC1 ... 104
14) CC(C)Nc1ncc(C(=O)N[C@H]2C3CC4CC2C[C@@](O)(C4)C3)c([C@H]2CCCO2)n1 ... 103
15) CC(C)Oc1nc(NC2CC2)ncc1C(=O)N[C@H]1C2CC3CC1C[C@@](O)(C3)C2 ... 94.9
16) CSc1ncc(C(=O)N[C@H]2C3CC4CC2C[C@@](O)(C4)C3)c(C2CC2)n1 ... 97.5
